src = the supplement of paper PMC10065799

molecular target: FGFR1 (UniProt P11362); test: phosphorylation enrichment, bacterial display (enrichment ratio); higher = better substrate or ligand; peptides without Tyr show the background;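 further: 11-residue human phosphosite peptides and single-mutation variants displayed on the E. coli surface, counted by deep sequencing, each peptide's frequency after selection divided by its frequency in the unselected input library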;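 further: frequency after pTyr selection over input frequency; kinase dosed for 20-30% of maximal phosphorylation in three min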
Sequence (P11362 whole entry, looked up): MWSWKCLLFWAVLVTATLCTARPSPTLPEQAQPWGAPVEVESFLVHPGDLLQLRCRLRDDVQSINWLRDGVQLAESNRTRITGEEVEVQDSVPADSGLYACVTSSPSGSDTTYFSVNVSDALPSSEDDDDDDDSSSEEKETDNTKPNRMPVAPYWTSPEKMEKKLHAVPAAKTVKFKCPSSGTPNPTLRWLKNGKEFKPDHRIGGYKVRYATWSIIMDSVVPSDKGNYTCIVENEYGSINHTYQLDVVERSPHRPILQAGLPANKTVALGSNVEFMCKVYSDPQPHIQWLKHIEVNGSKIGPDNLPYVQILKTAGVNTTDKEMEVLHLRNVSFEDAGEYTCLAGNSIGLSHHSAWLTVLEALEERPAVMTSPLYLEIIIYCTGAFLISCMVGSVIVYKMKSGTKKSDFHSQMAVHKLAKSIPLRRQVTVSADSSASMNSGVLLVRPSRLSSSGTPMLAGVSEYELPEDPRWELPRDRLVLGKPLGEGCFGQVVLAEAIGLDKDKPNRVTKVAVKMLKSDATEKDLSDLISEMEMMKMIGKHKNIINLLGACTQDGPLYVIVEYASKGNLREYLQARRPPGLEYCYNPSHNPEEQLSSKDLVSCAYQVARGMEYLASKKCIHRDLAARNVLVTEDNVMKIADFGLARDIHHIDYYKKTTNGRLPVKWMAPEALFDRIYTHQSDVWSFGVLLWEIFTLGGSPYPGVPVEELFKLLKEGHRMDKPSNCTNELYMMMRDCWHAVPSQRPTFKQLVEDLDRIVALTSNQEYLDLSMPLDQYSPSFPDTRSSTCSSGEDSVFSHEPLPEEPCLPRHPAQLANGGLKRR
PARAMETER: phosphorylation enrichment
One number for each entry.

Below: 3 sequences and their reported phosphorylation enrichment.
BIOSEQUENCE	NUMERIC_READOUT
YEREQYADRAR [RBM4_Y355]	0.495
AVLSLYASGCT [ACTA2_Y145_R149C]	0.512
IFRASYVPFAA [RBM47_Y541_G538R_YF]	0.508

Next sequence, phosphorylation enrichment to be filled in.
Query: Using the record for EEKKKYFDAKI [CASP5_Y103_T106A_YF] , state its measured phosphorylation enrichment.
Result: 0.488
